# Test system: HCT116 pERK
# Test Description: Phospho-ERK inhibition, AlphaLISA SureFire Ultra p-ERK 1/2
# Format: cell-based, human
# Setup Conditions: Table 3; lowest value of the pERK IC50 curve
Consider the following molecules; for each one, report its HCT116 (Ymin %).
Give just the numeric value; % need not be written.

[ask] Record lookup: for HCT116 pERK, what HCT116 (Ymin %) belongs to O=S(=O)(Cc1ccncc1)c1cn(-c2ncc3ncnc(Nc4c(F)ccc(NS(=O)(=O)c5cccc(Cl)c5Cl)c4F)c3n2)c2ccccc12 [Example 143] ?
[reply] −7

[ask] And then Cc1ncn(-c2ncc3ncnc(Nc4c(F)ccc(NS(=O)(=O)c5ccccc5C#N)c4F)c3n2)c1C [Example 34] , what is it?
[reply] −3

[ask] Lookup O=S(=O)(Nc1ccc(F)c(Nc2ncnc3cnc(-n4cnc5c(N6CC(CCO)C6)cccc54)nc23)c1F)c1cccc(Cl)c1Cl [Example 147]
[reply] −9

[ask] Record: CCS(=O)(=O)c1cn(-c2ncc3ncnc(Nc4c(F)ccc(NS(=O)(=O)c5cccc(Cl)c5Cl)c4F)c3n2)c2ccccc12 [Example 141]
[reply] −3

[ask] Also Cc1c(F)cccc1S(=O)(=O)Nc1ccc(F)c(Nc2ncnc3cnc(-n4cc(C(=O)N(C)C)c5ccccc54)nc23)c1F [Example 97] ?
[reply] −6.3

[ask] Next up: O=S(=O)(Nc1ccc(F)c(Nc2ncnc3cnc(-n4cnc5ccccc54)nc23)c1F)c1scc(Cl)c1Cl [Example 157]
[reply] 0

[ask] Then CO[C@@H]1CCN(S(=O)(=O)Nc2ccc(F)c(Nc3ncnc4cnc(N5Cc6ccccc6C5)nc34)c2F)C1 [Example 67] ?
[reply] 6

Values from patent US20240239801A1
